Reported values of absorbance w/shed CA 125/O772P competitor (25-fold w/w excess) for individual entries
- measurement target: T1, O772P 3-repeat recombinant protein (human)
- T1 construct: Repeats are residues 14-452 of the entry
- T1 chain: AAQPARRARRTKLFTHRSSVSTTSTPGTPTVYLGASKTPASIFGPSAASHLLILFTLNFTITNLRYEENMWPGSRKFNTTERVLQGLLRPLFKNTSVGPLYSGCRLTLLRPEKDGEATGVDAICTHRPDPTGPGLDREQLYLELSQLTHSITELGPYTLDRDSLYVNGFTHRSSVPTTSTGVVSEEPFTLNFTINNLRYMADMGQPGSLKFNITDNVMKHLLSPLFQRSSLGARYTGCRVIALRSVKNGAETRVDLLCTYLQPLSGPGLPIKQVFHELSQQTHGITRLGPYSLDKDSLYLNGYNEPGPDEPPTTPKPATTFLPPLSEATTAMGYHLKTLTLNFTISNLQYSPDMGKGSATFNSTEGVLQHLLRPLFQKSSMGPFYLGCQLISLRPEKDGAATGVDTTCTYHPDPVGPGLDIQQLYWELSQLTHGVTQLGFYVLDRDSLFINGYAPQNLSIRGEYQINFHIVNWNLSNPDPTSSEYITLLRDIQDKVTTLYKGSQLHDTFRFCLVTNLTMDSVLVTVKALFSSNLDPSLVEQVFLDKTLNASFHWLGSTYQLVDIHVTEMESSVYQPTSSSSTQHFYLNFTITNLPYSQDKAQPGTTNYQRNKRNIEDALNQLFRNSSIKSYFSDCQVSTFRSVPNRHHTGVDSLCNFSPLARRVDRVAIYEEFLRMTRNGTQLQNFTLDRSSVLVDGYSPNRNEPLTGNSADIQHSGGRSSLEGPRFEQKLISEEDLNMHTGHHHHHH
- assay procedure: ELISA competition, plate-bound O772P 3-repeat; competitor shed CA 125/O772P
Express the result in OD but write the number alone.

monoclonal antibody 501.1 (antibody, V domains shown, Murine hybridoma antibody) VH: QIQLVQSGPELKKPGETVQISCKASGYIFTDYGMNWVKQAPGKGLKWMGCINTYTGETIYSDDFRGRFAISLETSASTAFIQINNLKNEDAATYFCARGNYRDAIDYWGQGTSVTVSS VL: DIKMTQSPSSIYASLGERVTITCKASQDIKSYLSWYQQKPWKSPKTLIYYATTLADGVPSRFSGSGSGQDYSLIINSLESDDIATYFCLHHDESPFTFGSGTKLEI ... 0.735

Please turn your attention to the following entry.
Sample monoclonal antibody 368.1 (antibody, V domains shown, Murine hybridoma antibody) VH: EVQLQQSGPELVRTGASVKISCKASGYSFTGFYMHWVKQSLGKSLEWIGYVSCYTGATTYTQKFKGKATFTVDTSSSTAYMQLNSLTSEDSAVYYCAREGDYYSMDFWGQGTSVTVSS VL: DVVMTQTPLSLPVSLGDQASISCRSSQSLERTNGNTYLHWYLQKPGQSPKLLIYKVSSRFSGVPDRFSGSGSGTDFTLKISRVEAEDLGIYFCSQTTHGPPTCGGGTKLEIK ; absorbance w/shed CA 125/O772P competitor (25-fold w/w excess) observed: 1.33

Source: patent US20050064518A1
